assay: RP, Restek Raptor Biphenyl, 100 × 2.1 mm, 2.7 µm, 50 °C, 0.4 mL/min, estimated dead time 0.55 min; A: water + 0.1% formic acid, pH 3; B: methanol + 0.1% formic acid, pH 3; gradient (min/%B) 0/5 1.12/5 6.41/99.5 10.01/99.5; conditions: stereoisomer not certain
Values of LC retention time strictly less than 5 min map to Yes, and values of at least 5 min map to No.

Please review the following examples before continuing.
INSERT INTO assay_data (compound, assigned_category) VALUES
  ('CNC(=O)c1cc(Cl)cc(C)c1NC(=O)c1cc(Br)nn1-c1ncccc1Cl', 'No'),
  ('O=c1[nH]c(=O)c2ncn(C3OC(COP(=O)(O)O)C(O)C3O)c2[nH]1 (stereo unspecified) [XANTHOSINE-MONOPHOSPHATE]', 'Yes');

API: query returns whether the compound falls strictly under 5 min in LC retention time. Query: c1ncc2[nH]cnc2n1
Yes

Query CCCCC(O)(Cn1cncn1)c1ccc(Cl)cc1Cl (stereo unspecified) next
No

* * *

Below, each entry is listed alongside its reported LC retention time.
assay: RP, Restek Raptor Biphenyl, 100 × 2.1 mm, 2.7 µm, 50 °C, 0.4 mL/min, estimated dead time 0.55 min; A: water + 0.1% formic acid, pH 3; B: methanol + 0.1% formic acid, pH 3; gradient (min/%B) 0/5 1.12/5 6.41/99.5 10.01/99.5; conditions: stereoisomer not certain
# unit: min | format: bare number

Solved entries:
INSERT INTO results (compound, measured_endpoint, output_unit, result) VALUES
  ('CCCCCCCCCCCCCCCCCCCCCCCCCCCC(=O)O [Octacosanoic acid]', 'LC retention time', 'min', 7.08),
  ('CC1(C)CCC(=Cc2ccc(Cl)cc2)C1(O)Cn1cncn1 (stereo not given) [Triticonazole]', 'LC retention time', 'min', 5.93),
  ('O=C(Nc1ccccc1)Nc1cnns1 [Thidiazuron]', 'LC retention time', 'min', 4.75),
  ('NCCc1ccc(O)c(O)c1 [DOPAMINE]', 'LC retention time', 'min', 0.724);

Could you now look at the following compound, please?
Can you share its LC retention time? I mean this compound: CC(C)CCCCCCCCCCCCCCC(=O)O [Isostearic acid]
6.67

* * *

assay: RP, Restek Raptor Biphenyl, 100 × 2.1 mm, 2.7 µm, 50 °C, 0.4 mL/min, estimated dead time 0.55 min; A: water + 0.1% formic acid, pH 3; B: methanol + 0.1% formic acid, pH 3; gradient (min/%B) 0/5 1.12/5 6.41/99.5 10.01/99.5; conditions: stereoisomer not certain
measured-endpoint: LC retention time (min)
# unit: min | format: bare number

INSERT INTO measurements (molecule, result) VALUES
  ('CCCCCCCCC[n+]1cccc(S(=O)(=O)[O-])c1', 5.13),
  ('CCCCCCCCCCCCCCCCCCCCCCCCCCCCCC(=O)O', 7.12);

Can you share its LC retention time? I mean this molecule: O=C(O)C(O)c1ccc(O)c(O)c1 (stereo not given) [3,4 DIHYDROXYMANDELATE]
0.822

* * *

experiment: RP, Restek Raptor Biphenyl, 100 × 2.1 mm, 2.7 µm, 50 °C, 0.4 mL/min, estimated dead time 0.55 min; A: water + 0.1% formic acid, pH 3; B: methanol + 0.1% formic acid, pH 3; gradient (min/%B) 0/5 1.12/5 6.41/99.5 10.01/99.5; conditions: stereoisomer not certain
Values of LC retention time strictly less than 5 min map to rule met, and values of at least 5 min map to rule not met.

Please review the following examples before continuing.
INSERT INTO assay_data (molecule, assigned_category) VALUES
  ('CCC(Oc1ccc(F)c(C(F)(F)F)c1)C(=O)NCc1ccccc1 (centres undefined) [Beflubutamid]', 'rule not met'),
  ('O=C(O)Cc1ccccc1 [PHENYLACETATE]', 'rule met'),
  ('CCCCCCCCCCCCCCCCCCCCCCCCC(=O)O [Pentacosanoic Acid]', 'rule not met'),
  ('Cc1cc(C(F)(C(F)(F)F)C(F)(F)F)ccc1NC(=O)c1cccc(I)c1C(=O)NC(C)(C)CS(C)(=O)=O [Flubendiamide]', 'rule not met'),
  ('CCCCC[n+]1cccc(S(=O)(=O)[O-])c1 [C5-APS]', 'rule met'),
  ('CCCCCCCCCCCCCCC(=O)O [Pentadecanoic acid]', 'rule not met'),
  ('CCCCCCCCCCCCCCCCCCCCCC(=O)O [Behenic acid]', 'rule not met'),
  ('CC(=O)NCCc1c[nH]c2ccc(O)cc12 [N-ACETYLSEROTONIN]', 'rule met');

// switching to the query molecule
API: query returns whether the molecule falls strictly under 5 min in LC retention time. Query: Cc1nn(-c2cc(NS(C)(=O)=O)c(Cl)cc2Cl)c(=O)n1C(F)F [Sulfentrazone]
rule not met

* * *

assay: RP, Restek Raptor Biphenyl, 100 × 2.1 mm, 2.7 µm, 50 °C, 0.4 mL/min, estimated dead time 0.55 min; A: water + 0.1% formic acid, pH 3; B: methanol + 0.1% formic acid, pH 3; gradient (min/%B) 0/5 1.12/5 6.41/99.5 10.01/99.5; conditions: stereoisomer not certain
Structures can show the parent of a compound that is named as a salt.
Below, each entry is listed alongside its reported LC retention time.
# unit: min | format: bare number

Solved entries:
INSERT INTO results (molecule, result) VALUES
  ('CCCCCCCCCCCCCCCC[n+]1cccc(S(=O)(=O)[O-])c1', 6.34),
  ('O=C(O)[C@H](O)Cc1ccccc1 [D-(+)-3-Phenyllactic acid]', 3.79),
  ('N[C@@H](Cc1ccc(O)c(O)c1)C(=O)O', 0.702);

Can you share its LC retention time? I mean this molecule: CCCCCCCCCCCC(=O)OC(CC(=O)[O-])C[N+](C)(C)C (centres undefined)
5.46

Query CCCCCCC(O)CC=CCCCCCCCC(=O)O (centres undefined) next
6.18

Query O=C(O)c1cc(=O)c2ccccc2[nH]1 next
3.58

Query CC(CCC(=O)NCCS(=O)(=O)O)C1CCC2C3C(O)CC4CC(O)CCC4(C)C3CC(O)C12C (centres undefined) [Taurocholic acid sodium salt hydrate] next
5.83

Query O=c1[nH]c(=O)c2[nH]c(=O)[nH]c2[nH]1 [URATE] next
0.774

Query NC(=O)C1CCCN1C(=O)C(Cc1cnc[nH]1)NC(=O)C1CCC(=O)N1 (centres undefined) next
1.99

* * *

test: RP, Restek Raptor Biphenyl, 100 × 2.1 mm, 2.7 µm, 50 °C, 0.4 mL/min, estimated dead time 0.55 min; A: water + 0.1% formic acid, pH 3; B: methanol + 0.1% formic acid, pH 3; gradient (min/%B) 0/5 1.12/5 6.41/99.5 10.01/99.5; settings: stereoisomer not certain
Values of LC retention time strictly less than 3 min map to YES, and values of at least 3 min map to NO.

INSERT INTO assay_data (compound, assigned_category) VALUES
  ('O=C(O)Cc1cc(O)ccc1O [HOMOGENTISATE]', 'YES'),
  ('O=C(O)CCCCCCCCC(=O)O [SEBACATE]', 'NO'),
  ('O=C(O)c1c[nH]c2ccccc12 [Indole-3-carboxylic acid]', 'NO'),
  ('CCCCCCCCCCCCCC(=O)OC(CC(=O)[O-])C[N+](C)(C)C [Myristoyl-L-carnitine]', 'NO'),
  ('CC(=O)NC(CC(N)=O)C(=O)O (stereo not given) [N-ACETYLASPARAGINE]', 'YES'),
  ('CC1(C)CCC(Cc2ccc(Cl)cc2)C1(O)Cn1cncn1 (stereo not given) [Metconazole]', 'NO'),
  ('O=C(O)CCCCC1SCC2NC(=O)NC21 (stereo not given) [BIOTIN]', 'NO'),
  ('O=C(O)c1ccc(C(=O)O)o1 [2,5-Furandicarboxylic acid]', 'YES');

API: query returns whether the compound falls strictly under 3 min in LC retention time. Query: CC(C)CCCCCCCCCCCCC(=O)O [Isopalmitic acid]
NO

Query CNC(=N[N+](=O)[O-])NCC1CCOC1 (stereo not given) [Dinotefuran] next
NO

Query CCCCCCCCCCCCCCCCCCC(=O)O [Nonadecanoic acid] next
NO

Query CCCCCCCCCCCCCCC(O)C(=O)O (stereo not given) [2-Hydroxyhexadecanoic acid] next
NO

* * *

Below, each entry is listed alongside its reported LC retention time.
experiment: RP, Restek Raptor Biphenyl, 100 × 2.1 mm, 2.7 µm, 50 °C, 0.4 mL/min, estimated dead time 0.55 min; A: water + 0.1% formic acid, pH 3; B: methanol + 0.1% formic acid, pH 3; gradient (min/%B) 0/5 1.12/5 6.41/99.5 10.01/99.5; conditions: stereoisomer not certain
Where a name gives a salt, the structure may show the parent alone.
Reply with a number, then the unit it belongs to.

Solved entries:
INSERT INTO measurements (molecule, measured_endpoint, result) VALUES
  ('OC(c1ccc(Cl)cc1)(c1cncnc1)c1ccccc1Cl (stereo not given)', 'LC retention time', '6.02 min'),
  ('C=CCC(C)C(=O)O (stereo not given)', 'LC retention time', '3.16 min'),
  ('O=c1[nH]c2c(c(=O)n1C1CCCCC1)CCC2', 'LC retention time', '5.48 min'),
  ('CC1NC(=O)NC1CCCCCC(=O)O (stereo not given)', 'LC retention time', '4.21 min'),
  ('CC12CCC(=O)C=C1CCC1C2C(O)CC2(C)C1CCC2(O)C(=O)CO (stereo not given)', 'LC retention time', '5.49 min'),
  ('O=C(O)CC[C@H](O)C(=O)O [L-α-Hydroxyglutaric acid disodium salt]', 'LC retention time', '0.746 min'),
  ('O=Cc1c[nH]c2ccccc12', 'LC retention time', '4.24 min'),
  ('NC(Cc1ccc(O)cc1)C(=O)O (stereo not given)', 'LC retention time', '0.796 min'),
  ('O=C(O)CCc1ccc(O)cc1 [3-(4-Hydroxyphenyl)propionic acid]', 'LC retention time', '3.65 min');

Could you now look at the following molecule, please?
Can you share its LC retention time? I mean this molecule: CC(C)CCCC(C)CCCC(C)CCCC(C)CC(=O)O (stereo not given)
6.68 min
